Cited source: patent US11547681B2

Assay: in vitro
Details: male, Sprague-Dawley, rat, microsomes, Half-life
Procedure: The reaction mixture, minus cofactors, was prepared as described below. The test article was added into the reaction mixture at a final concentration of 1 μM. […] Half-lives were calculated using GraphPad software, fitting to a single-phase exponential decay equation. Reaction mixture, minus cofactors, was prepared as described below. […] Half-lives were calculated using GraphPad software, fitting to a single-phase exponential decay equation. […]
Parameter: half-life at 1 μM (min)
Dear colleague, please return just the value in min, with no unit written.

Exercise: Which half-life at 1 μM value belongs to CCCCCCCCCCCCCCCC(=O)NCCOC(=O)CCC(=O)OCC(COC(=O)CCC)OC(=O)CCC (stereo not drawn) ?
Solution: 2

Exercise: Same for CCCCCCCCCCCCCCCC(=O)NCCOC(=O)CCC(=O)OC[C@H]1O[C@@](CO)(O[C@H]2O[C@H](CO)[C@@H](O)[C@H](O)[C@H]2O)[C@@H](O)[C@@H]1O
Solution: 8.5
